- target: SK2-a channel (SK2, KCa2.2) co-expressed with CaM (Rattus norvegicus, UniProt P0DP29+P70604)
- Construct: full-length SK2-a co-transfected with CaM and GFP in TsA201 cells; tetrameric channel
- protocol-description: inside-out patch clamp, potentiation of SK2 current
experimental-endpoint: EC50 (µM)

a. O=C1Nc2c(F)cccc2C1=NO [SKS-14, 7-fluoro-3-(hydroxyimino)indolin-2-one]
b. Cc1cc2c(cc1Br)NC(=O)C2=NO
c. O=C1Nc2c(ccc(Cl)c2Cl)C1=NO
Exercise: // ascending sort on EC50 for the entries above Give the labels in the order specified.
Key: c, b, a
